# target or test system: hSERT (Homo sapiens, UniProt P31645)
# Construct: expressed in transfected cells; the general 96-well protocol names Cos-1
# Sequence (P31645 whole entry): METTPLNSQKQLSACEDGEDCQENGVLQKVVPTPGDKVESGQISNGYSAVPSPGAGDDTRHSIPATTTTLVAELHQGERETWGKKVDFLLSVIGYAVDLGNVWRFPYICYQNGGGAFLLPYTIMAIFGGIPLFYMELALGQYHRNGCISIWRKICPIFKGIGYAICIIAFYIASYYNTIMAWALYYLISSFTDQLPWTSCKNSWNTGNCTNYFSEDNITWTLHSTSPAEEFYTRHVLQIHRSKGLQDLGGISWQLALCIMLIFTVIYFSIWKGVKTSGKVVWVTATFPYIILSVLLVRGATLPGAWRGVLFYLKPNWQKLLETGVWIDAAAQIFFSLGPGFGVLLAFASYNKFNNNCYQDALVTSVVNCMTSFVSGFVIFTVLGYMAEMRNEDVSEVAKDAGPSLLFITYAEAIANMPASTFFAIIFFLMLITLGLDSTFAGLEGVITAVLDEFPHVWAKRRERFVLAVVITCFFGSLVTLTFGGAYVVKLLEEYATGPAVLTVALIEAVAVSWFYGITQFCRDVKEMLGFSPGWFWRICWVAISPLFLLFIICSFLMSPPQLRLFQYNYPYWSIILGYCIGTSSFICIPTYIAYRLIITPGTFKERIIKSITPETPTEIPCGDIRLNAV
# protocol text: Binding of [3H]-citalopram to membrane preparations
# applied conditions: 35 nM [3H]-citalopram, 60 min RT
reported property: Binding of [3H]-citalopram (Bmax)

Here is how some compounds turned out for Binding of [3H]-citalopram (Bmax).
# compound, result
measured = [
    ("C=CS(=O)(=O)c1ccccc1", "No effect"),
    ("O=S(=O)(Cl)c1cccc2ccccc12 [1-NSC, 1-naphthalenesulfonyl chloride]", "Displace"),
    ("NCCc1ccc(S(=O)(=O)Cl)cc1 [PefaCI, 4-(2-Aminoethyl)benzenesulfonyle cloride]", "No effect"),
    ("O=S(=O)(Cl)Cc1ccccc1", "No effect"),
    ("O=S(=O)(Cl)c1ccccc1 [BSC, benzenesulfonyl chloride]", "No effect"),
    ("Clc1cccc2ccccc12", "No effect"),
]

For "Cc1ccc(S(N)(=O)=O)cc1" the compound record lists Binding of [3H]-citalopram (Bmax) as No effect

Record "CCOS(=O)(=O)c1cccc2ccccc12" . Reported Binding of [3H]-citalopram (Bmax): Displace

Reported Binding of [3H]-citalopram (Bmax) for "[C-]#[N+]CS(=O)(=O)c1ccc(C)cc1" was No effect

###

# target or test system: hSERT (Homo sapiens)
# Construct: the general 96-well protocol names Cos-1
# protocol text: 5-HT uptake assay with preincubation (whole cells)
# applied conditions: whole cell assay with preincubation (title 45 min, text 60 min), 75 nM [3H]-5-HT, 10 min
reported property: IC50 (µM)
Kindly answer with a numeric value in µM, unit omitted.

Solved entries:
# structure, units, IC50
measured = [
    ("Cc1ccc(S(=O)(=O)n2ccnc2)cc1", "µM", 1820),
    ("O=[N+]([O-])c1ccc(F)c2ccccc12", "µM", 25.9),
]

Now, please, on to the next compound.
// compound "OB(O)c1ccccc1" , assay hSERT (Homo sapiens), IC50 value: 735

###

# target or test system: hSERT (Homo sapiens, UniProt P31645)
# Construct: expressed in transfected cells; the general 96-well protocol names Cos-1
# protocol text: Binding assay on whole cells transfected with hSERT ([3H]-citalopram displacement)
# applied conditions: whole cell assay, 35 nM [3H]-citalopram, 60 min room temperature; table title: 45 min preincubation
reported property: EC50
Please format your answer as a value with the unit trailing.

Solved entries:
# compound, result
measured = [
    ("Nc1cccc2ccccc12 [TS18]", "1030 µM"),
    ("Nc1cccc2c(N)cccc12 [TS19]", "950 µM"),
    ("Cc1ccc2ccccc2c1[N+](=O)[O-] [TS23]", "1020 µM"),
    ("C=CS(=O)(=O)c1ccccc1 [TS17]", "1050 µM"),
]

Note: attention shifts to another entry.
For reference, reported EC50 for CC(=O)c1ccccc1 [TS9] stands at 990 µM

###

# IC50 per entry
# target or test system: hSERT (Homo sapiens, UniProt P31645)
# Construct: expressed in transfected cells; the general 96-well protocol names Cos-1
# protocol text: 5-HT uptake assay with preincubation (whole cells)
# Format: cell-based
# applied conditions: whole cell assay with preincubation (title 45 min, text 60 min), 75 nM [3H]-5-HT, 10 min

// known answers, use as guide
# structure, IC50
rows = [
    ("C=CS(=O)(=O)c1ccccc1", "> 2000 µM"),
    ("O=S(=O)(c1ccccc1)c1ccccc1", "> 2000 µM"),
]

Turning now to a further compound:
# compound "Cc1ccc(S(N)(=O)=O)cc1" ; its IC50 = > 2000 µM
